Reference source for all entries: patent US20200277373A1

Target: T1, Human TREM2 protein, on cells (human, UniProt Q9NZC2 19-230)
T1 construct: Wild type human TREM2 expressed with DAP12 on HEK293 cells (clone H6), or endogenous on primary human monocyte-derived macrophages; also called hTREM2-HEK; HEK293-H6
T1 sequence: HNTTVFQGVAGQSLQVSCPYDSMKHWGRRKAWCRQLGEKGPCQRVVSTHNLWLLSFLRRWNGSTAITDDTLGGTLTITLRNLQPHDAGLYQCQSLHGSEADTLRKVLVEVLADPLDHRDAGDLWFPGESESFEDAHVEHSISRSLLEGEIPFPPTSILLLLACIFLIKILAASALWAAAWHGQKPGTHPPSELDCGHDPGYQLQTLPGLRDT
Assay: flow cytometry, HEK293 cells overexpressing human TREM2; also: test concentration or dose not given here
observed.property: FOB (fold over binding) (fold)
Please reply with the bare figure in fold and do not write the unit itself.

Below: 4 binders and their reported FOB (fold over binding).
binder: 26D2.D1 (antibody, IgG2a, V domains shown, Mouse hybridoma antibody, IgG2a, k; also called RS8.26D2.D1) VH: EVQLQQSGPELVKPGASVKMSCKASGYTFTSYVMHWVKQKPGQGLEWIGYINPYTDGTKYNEKFKGKATLTSDKSSSTAYMDLSSLTSEDSAVYYCARGEVRRYALDYWGQGTSVTVSS VL: DIQMTQSSSSFSVSLGDRVTITCKASEDIYNRLAWYQQKPGNAPRLLISGATSLETGVPSRFSGSGSGKDYTLSITSLQTEDVATYYCQQYWSTPWTFGGGTKLEIK
units.label: fold
FOB (fold over binding): 4.9

binder: RS9.F6 (antibody, V domains shown) VH: QVQLQQPGAELVKPGASVKLSCKASGYTFTSYWMHWVKQSPGRGLEWIGRSDPTTGGTNYNEKFKTKATLTVDKPSSTAYMQLSSLTSDDSAVYYCVRTSGTGDYWGQGTSLTVSS VL: DVVMTQTPLSLPVSLGDQASISCRSSQSLVHNNGNTFLHWYLQKPGQSPKLLIYKVSNRFSGVPDRFSGSGSGTDFTLKISRVEAEDLGVYFCSQTTHVPPTFGGGTKLEIK
units.label: fold
FOB (fold over binding): 13.2

binder: RS9.F10 (antibody, V domains shown, same entries as RS9.F6; also called RS.F10) VH: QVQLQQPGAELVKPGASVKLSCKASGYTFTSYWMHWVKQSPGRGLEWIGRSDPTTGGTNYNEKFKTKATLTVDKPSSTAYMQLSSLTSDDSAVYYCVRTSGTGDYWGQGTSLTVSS VL: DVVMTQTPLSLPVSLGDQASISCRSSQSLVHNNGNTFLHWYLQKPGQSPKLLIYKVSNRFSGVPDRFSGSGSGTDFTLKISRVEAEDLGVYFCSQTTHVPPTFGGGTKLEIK
units.label: fold
FOB (fold over binding): 12.9

binder: 26E2.A3 (antibody, V domains shown, Mouse hybridoma antibody, Ig2a, k; also called RS8.26E2.A3) VH: QVHLQQSGSELRSPGSSVKLSCKDFDSEVFPISYMSWIRQKPGHGFEWIGDILPSIGGRIYGVKFEDRATLDADTVSNTAYLELNSLTSEDSAIYYCARKDYGSLAYWGQGTLVTVSA VL: DVVMTQTPLSLPVSLGDQASISCRSSQSLVHINGNTYLQWFLQKPGQSPKLLIYKVSNRFSGVPDRFSGSGSGTAFTLKISRVEAEDLGVYFCSQSTHVPYTFGGGTKLEIK
units.label: fold
FOB (fold over binding): 10.3

Next up:
Value lookup for FOB (fold over binding); key = 3D3.A1 (antibody, V domains shown, Mouse hybridoma antibody, Ig2a, k; also called RS8.3D3.A1) VH: EVQLQQSGPELVKPGASVKISCKTSGYTLSEYTMHWVIQSHGKSLEWIGGVIPNSGGTSYNQKFRDKASLTVDKSSSTAYLELRSLTSEDSAVYYCARGDDSYRRGYALDYWGQGTSVTVSS VL: DIVMSQSPSSLAVSVGEKVTMSCKSSQSLLYSSNQKSYLAWYQQKPGQSPKLLIYWASTRESGVPDRFRGSGSGTDFTLTISSVKAEDLAVYYCQQYFSYPPTFGGGTKLEIK 11.7
